All values here come from PubChem BioAssay (NCI).

Task for the reader: assign each of the following compounds its reported growth.
system: HS 578T breast; assay: NCI-60 one-dose screen, 48 h (100 = growth as untreated, 0 = no growth, -100 = all killed); conditions: 10 µM
About 83,000 compounds went through this panel and 20% of them were active in at least one assay; those are over-represented in the sample as a whole.
One number for each entry, in %.

Some solved cases for reference:
INSERT INTO results (compound, meas_value) VALUES
  ('CCCCCC(=O)O[C@]1(C(C)=O)CCC2C3CCC4=CC(=O)CC[C@]4(C)C3CC[C@@]21C (some centres not stated)', 54.9),
  ('CCC(CC)n1c(C)cc(=O)n1C(CC)CC', 110),
  ('CC[C@@H](C(=O)[C@@H](C)[C@@H](O)[C@H](C)[C@@H]1O[C@@H]([C@@H](CC)C(=O)O)CC[C@@H]1C)C1O[C@]2(C=CC(=O)[C@]3(CC[C@@](C)([C@H]4CC[C@](O)(CC)[C@H](C)O4)O3)O2)[C@H](C)C[C@@H]1C (some centres not stated)', 30.6);

Provide growth for all items below, preserving their order.
1. COc1cc2cc(Oc3ccc(NC(=O)Nc4ccc(Cl)c(Cl)c4)cc3)c(C)nc2cc1OC
2. C=CCNCCN1C(=O)c2ccc3c4c(ccc(c24)C1=O)C(=O)N(CCNCC=C)C3=O

[45.1, 1.35]

Provide growth for all items below, preserving their order.
1. Cc1c(C(N)=O)sc2c1c(=O)n(Cc1ccccc1)c1nnc(-c3ccc(Br)cc3)n21
2. O=C(N/N=C/c1ccc(Cl)cc1)c1ccccc1Nc1cccc(C(F)(F)F)c1
3. CC[C@H]1OC(=O)[C@H](C)[C@@H](O[C@H]2C[C@@](C)(OC)[C@@H](O)[C@H](C)O2)[C@H](C)[C@@H](O[C@@H]2O[C@H](C)C[C@H](N(C)C)[C@H]2O)[C@](C)(OC)C/C(C)=C2/O[C@@]1(C)C=C2C
4. COC1=CC(=O)OC(c2ccc(OC)cc2)C1 (configuration not stated)
5. Cc1ccc(-c2c3c(N)nc(-c4cccnc4)nc3nc3c2c(C)nn3-c2ccccc2)cc1
6. C[C@@H](O)[C@H]1C(=O)N2C(C(=O)O)=C(SC3CN[C@H](C(=O)N(C)C)C3)[C@H](C)[C@H]12 (some centres not stated)
7. CCN(CC)CCN1c2nc3ccccc3cc2Sc2cc3ccccc3nc21
8. COc1ccccc1-n1c(-c2sc(NC(C)=O)nc2C)n[nH]c1=S

[73.6, 61.7, 62.5, 111, 72, 102, 12.4, 121]

Provide growth for all items below, preserving their order.
1. Cc1cn(-c2cccc(NC(=O)c3ccc(C)c(Nc4nccc(-c5cccnc5)n4)c3)c2)cn1
2. c1ccc(CCCCc2ccc3ccccc3n2)cc1
3. C/C(=N\O)c1ccc(NC(=O)CSc2nnc(-c3ccccc3)n2-c2ccccc2)cc1
4. C/C=C/C1=CN2C(=O)c3cc(OC4OC(C)C(NC)C(C)(O)C4O)c(C)c(O)c3N=C[C@@H]2C1 (some centres not stated)

1: -8.85; 2: 98.7; 3: 62.5; 4: -11.6

---

system: CAKI-1 renal; assay: NCI-60 one-dose screen, 48 h (100 = growth as untreated, 0 = no growth, -100 = all killed); conditions: 10 µM
Compounds without any hit were thinned out: in the full panel of roughly 83,000, 20% have a hit.
Task for the reader: assign each of the following compounds its reported growth.
Numbers only, in %.

INSERT INTO measurements (compound, parameter_measured, reading_unit, meas_value) VALUES
  ('CC(C)[N+]1(C)C2CC[C@@H]1CC(OC(=O)C(CO)c1ccccc1)C2 (stereo partly specified)', 'growth', '%', 88.4),
  ('CC(C)(C)OC(=O)N1CCc2c(sc3ncnc(N/N=C/c4ccccc4Br)c23)C1', 'growth', '%', 54.4),
  ('CN1CCN(c2cc3c(cc2F)c(=O)c(C(=O)O)cn3-c2ccc(F)cc2)CC1', 'growth', '%', 94.7),
  ('O=c1[nH]c(=O)n(C2C[C@H](O)[C@@H](CO)O2)cc1C(F)(F)F (stereo partly specified)', 'growth', '%', 96.3);

Provide growth for all items below, preserving their order.
1. N#Cc1cnn(C(=O)c2nn(-c3ccc(Cl)cc3)cc2O)c1N
2. COc1cc(C2CC(c3ccccc3)=NN2C(C)=O)cc(OC)c1OC (stereo unspecified)
3. OCC1OC2C(NC(=S)N2c2ccccc2)C(O)C1O (stereo unspecified)
4. Cc1cc(SCc2ccccc2)nc(N)n1
5. CC(=O)O[C@@]12CO[C@@H]1C[C@H](O)[C@@]1(C)C(=O)[C@H](O)C3=C(C)[C@@H](OC(=O)[C@H](O)[C@@H](NC(=O)OC(C)(C)C)c4ccccc4)C[C@@](O)([C@@H](OC(=O)c4ccccc4)C12)C3(C)C (stereo partly specified)

-34.4
38.8
91.4
112
4.8

Provide growth for all items below, preserving their order.
1. CS(=O)(=O)c1nccc(-c2c(-c3cccc(OCCc4ccccc4)c3)nc3sccn23)n1
2. COc1ccc2c(c1)C(CC(=O)NN)CCC2 (stereo unspecified)
3. Cc1cc(O)ccc1C1=NN(c2ccc(S(C)(=O)=O)cc2)C(=O)CC1
4. Nc1nc(-c2cccnc2)nc2c1sc(=S)n2-c1ccccc1
5. COc1ccc(CCN2CCC(Nc3nc4ccccc4n3Cc3ccc(F)cc3)CC2)cc1
6. COc1ccc(-c2cc(-c3ccccc3)nc(SCCCC(=O)NO)n2)cc1

1. 85.7
2. 91.2
3. 25.4
4. 98.7
5. -1.28
6. -16.4

---

Task for the reader: assign each of the following compounds its reported growth.
test system: SK-MEL-28 melanoma; test: NCI-60 one-dose screen, 48 h (100 = growth as untreated, 0 = no growth, -100 = all killed); settings: 10 µM
Compounds without any hit were thinned out: in the full panel of roughly 83,000, 20% have a hit.
Give bare numbers, in %.

Provide growth for all items below, preserving their order.
1. Cc1cc(C(C#N)c2ccc(Cl)cc2)c(Cl)cc1NC(=O)c1cc(I)cc(I)c1O (stereo not drawn)
2. COc1cc(/C=C2\CCCC3=C2N=C2SC(C)=CN2C3c2cc(OC)c(OC)c(OC)c2)cc(OC)c1OC (stereo not drawn)
3. C[C@]12CCC3c4ccc(O)cc4C[C@@H](CCCCCCCCCS(=O)CCCC(F)(F)C(F)(F)F)C3C1CC[C@@H]2O (stereo partly drawn)
4. O=C(CNc1nnc(-c2cccnc2SCc2ccccc2)s1)Nc1nc(Cl)cc(Cl)n1
5. CCN(CC)CCCC(C)Nc1c2ccc(Cl)cc2nc2ccc(OC)cc12 (stereo not drawn)
6. COc1ccc(-c2nn(-c3cccc(Cl)c3)cc2C=C(C#N)C#N)cc1
7. O=C(O)c1ccc(-n2cc(CNc3ccc(Oc4ccccc4)cc3)c(-c3ccccc3)n2)cc1
8. COc1ccc(C(=O)CC(CC(=O)c2ccc(OC)cc2)c2c(C)nn(-c3ccccc3)c2Cl)cc1

1. 63.5
2. -51.6
3. 97.1
4. 110
5. -57.6
6. 17.2
7. 86.8
8. 105

Provide growth for all items below, preserving their order.
1. CCn1c2ccc(O)cc2c2c(C)c3c[n+](C)ccc3c(C)c21
2. CCn1cc(CNc2ccc(C(=O)Nc3ccc4ccccc4c3)cc2)c(C)n1
3. CNC(=O)c1cc(Oc2ccc3c(c2)sc2nc(-c4ccc(N)cc4)cn23)ccn1
4. S=c1cnc2ccccc2[nH]1
5. CO[C@H]1CC(O[C@@H]2/C(C)=C/C[C@@H]3C[C@@H](C[C@]4(C=C[C@H](C)[C@@H](C5CCCCC5)O4)O3)OC(=O)[C@@H]3C=C(C)[C@@H](O)[C@H]4OC/C(=C\C=C\[C@@H]2C)[C@]43O)O[C@@H](C)C1O[C@H]1C[C@H](OC)[C@@H](O)[C@H](C)O1 (stereo partly drawn)

31.8
77.8
66.1
108
-64.6

Provide growth for all items below, preserving their order.
1. CC(=O)OC1CC2C(C)(C)CCC[C@]2(C)C2=C1C(O)=C(C(C)C)C(=O)C2=O (stereo partly drawn)
2. Clc1ccc(C2=NN=C3C(Cc4ccccc4)=Nc4ccccc4N3C2)cc1
3. COc1ccc(N(C)c2ncnc3occ(C)c23)cc1

-42.8
83.4
134

Provide growth for all items below, preserving their order.
1. CCn1c(SCCc2ccccc2)nnc1-c1nn(-c2ccc(Cl)cc2Cl)c(-c2ccc(Cl)cc2)c1C
2. COc1ccc(CCN2CCC(Nc3nc4ccccc4n3Cc3ccc(F)cc3)CC2)cc1

[79.2, -76.7]

---

tested on: KM12 colon; assay: NCI-60 one-dose screen, 48 h (100 = growth as untreated, 0 = no growth, -100 = all killed); conditions: 10 µM
Compounds without any hit were thinned out: in the full panel of roughly 83,000, 20% have a hit. Active and inactive are the calls of the source. How the source made its calls: active means growth percent below 10; inactive means the rest.
Parameter measured: growth

INSERT INTO results (compound, assayed_system, parameter_measured, meas_value) VALUES
  ('Clc1ccc2c(c1)C(N1CCNCC1)=Nc1ccccc1O2', 'KM12 colon', 'growth', '51.9% (inactive)'),
  ('COc1cc2c(Nc3ccc(-c4ccc(N)cc4)cc3)ncnc2c(OC)c1OC', 'KM12 colon', 'growth', '3.42% (active)'),
  ('NS(=O)(=O)c1ccc(N2N=C(c3ccccc3)CCC2=O)cc1', 'KM12 colon', 'growth', '188% (inactive)'),
  ('OCC1OC(n2cnc3c(NCc4ccco4)ncnc32)C(O)C1O (stereo not given)', 'KM12 colon', 'growth', '62.8% (inactive)'),
  ('Cc1nn(-c2ccccc2)c2nc(Cl)c(C=O)c(-c3ccccc3)c12', 'KM12 colon', 'growth', '78.3% (inactive)');

Provide growth for all items below, preserving their order.
1. CCOC(=O)C1=CSC2=NC3=C(CCC/C3=C\c3ccc(Cl)cc3)C(c3ccc(Cl)cc3)N12 (stereo not given)
2. O=C(CNc1nnc(-c2cccnc2SCc2ccccc2)s1)Nc1nc(Cl)cc(Cl)n1
3. Cc1ccc(C2=NN(c3ccc(S(C)(=O)=O)cc3)C(=O)CC2)cc1
4. CN(C)CCCOc1ccc(OCCCN(C)C)c2c1C(=O)c1ccccc1C2=O
5. Cc1c2c[n+](C(C)C)ccc2c(C)c2c1[nH]c1ccccc12

66.7% (inactive)
97.9% (inactive)
35% (inactive)
6.87% (active)
8.68% (active)
